measurement target: T1, AFP158/HLA-A*02:01 complex (human)
T1 construct: biotinylated on the BSP by BirA for ELISA and panning; also called biotinylated AFP158/HLA-A*02:01 complex; Bio-AFP158
assay explanation: SPR, crude scFv captured;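 note: Peptide–MHC complex flowed at several concentrations over sensorchip-captured scFv, Kd derived from on- and off-rates obtained from the association and dissociation curves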
Lab note - cut at 200 nM for Kd: YES if strictly below, NO if not.

Reference set (3 entries):
binder	discrete label
AS170036 VL1VH1 HG108F (scFv) scFv: QSALTQPRSVSGSPGQSVTISCAGTSSDVGSENYVSWYQQHPGKAPKLMIYQVNKRASGVPDRFSGSKSGNTASLTISGLQAEDEADYYCASYRSSDHNIVFGGGTKLTVLGGGGSGGGGSGGGGSEVQLVESGGGLVQPGGSLRLSCAASGFTFSSYAMSWVRQAPGKGLEWVSTINSGTGSPYYADSVKGRFTISRDNSKNTLYLQMNSLRAEDTAVYYCAKNFFDGSWFLFPPAMDYWGQGTLVTVSSHHHHHH	NO
AS170036 VL1VH1-VHG108N (scFv) scFv: QSALTQPRSVSGSPGQSVTISCAGTSSDVGSENYVSWYQQHPGKAPKLMIYQVNKRASGVPDRFSGSKSGNTASLTISGLQAEDEADYYCASYRSSDHNIVFGGGTKLTVLGGGGSGGGGSGGGGSEVQLVESGGGLVQPGGSLRLSCAASGFTFSSYAMSWVRQAPGKGLEWVSTINSGTGSPYYADSVKGRFTISRDNSKNTLYLQMNSLRAEDTAVYYCAKNFFDGSWFLNPPAMDYWGQGTLVTVSSHHHHHH	YES
AS170036 VL1VH1 HP110T (scFv) scFv: QSALTQPRSVSGSPGQSVTISCAGTSSDVGSENYVSWYQQHPGKAPKLMIYQVNKRASGVPDRFSGSKSGNTASLTISGLQAEDEADYYCASYRSSDHNIVFGGGTKLTVLGGGGSGGGGSGGGGSEVQLVESGGGLVQPGGSLRLSCAASGFTFSSYAMSWVRQAPGKGLEWVSTINSGTGSPYYADSVKGRFTISRDNSKNTLYLQMNSLRAEDTAVYYCAKNFFDGSWFLGPTAMDYWGQGTLVTVSSHHHHHH	YES

API: the following record is the query input.
Incoming: Lab note: confirm whether the reported Kd for this binder is below 200 nM, equality not counting. binder: AS170036 VL1VH1 HS57A (scFv) scFv: QSALTQPRSVSGSPGQSVTISCAGTSSDVGSENYVSWYQQHPGKAPKLMIYQVNKRASGVPDRFSGSKSGNTASLTISGLQAEDEADYYCASYRSSDHNIVFGGGTKLTVLGGGGSGGGGSGGGGSEVQLVESGGGLVQPGGSLRLSCAASGFTFSSYAMSWVRQAPGKGLEWVSTINSGTGAPYYADSVKGRFTISRDNSKNTLYLQMNSLRAEDTAVYYCAKNFFDGSWFLGPPAMDYWGQGTLVTVSSHHHHHH
Outgoing: NO
